Assay: qHTS assay to identify small molecule agonists of the estrogen related receptor signaling pathway with the pleiotropic PPARgamma coactivator (PGC) from Tox21 10K library (AID 1224842); also: nearly all actives have a fitted effect of over 15% in size
Details: PGC/ERR reporter cell line, luciferase ONE-Glo, 18 h; series mostly up to 92.4 µM
Inconclusive results are not listed. Activity calls are given as the source filed them. Calls follow the shape of the dose curve; as a rule, active = well fitted activation curve with a large enough effect in the repeat runs; inconclusive = weak or mixed curves, or effect the other way; inactive = no such curve, though single readings can be large or run the other way.
Answer with one of the outcomes given here: active, inactive

-- ask Dear all, I need the recorded test outcome for CCOP(=O)(OCC)O/C(=C/Cl)c1ccc(Cl)cc1Cl , thank you.
-- reply inactive

-- ask Each molecule tested received a call. Report the one for IC(I)=C(I)I .
-- reply inactive

-- ask Call for entry COC1=CC(=O)O[C@@H](CCc2ccccc2)C1 :
-- reply inactive

-- ask Each molecule tested received a call. Report the one for Clc1cc(C(Cl)(Cl)Cl)cnc1Cl .
-- reply inactive

-- ask What classification did O=Cc1ccc(Cl)cc1Cl end up with in this test?
-- reply inactive

-- ask Record request — test call for O=C(Nc1ccccc1)Nc1cnns1
-- reply inactive

-- ask Which outcome was entered for the molecule C=CC(=O)OCCCCO in this test?
-- reply inactive

-- ask Per the assay record, what outcome was assigned to CNP(=O)(OC)Oc1ccc(C(C)(C)C)cc1Cl (centres undefined) ?
-- reply inactive

-- ask // outcome(item) with item = O=[N+]([O-])c1ccc(F)c([N+](=O)[O-])c1
-- reply inactive

-- ask Assay result, entry COc1nn(C(=O)NS(=O)(=O)c2ccccc2OC(F)(F)F)c(=O)n1C — outcome?
-- reply inactive

-- ask What outcome does the record of this test show for C=CCN1CC[C@]23c4c5ccc(O)c4O[C@H]2C(=O)CC[C@@]3(O)[C@H]1C5 ?
-- reply inactive

-- ask Could you please tell me the result logged for CCOP(=O)(OCC)SCCSCC in this assay?
-- reply inactive

-- ask Which outcome was assigned to CCCCN=C=O in this test?
-- reply inactive

-- ask Which outcome did this test record for the molecule Clc1ccc(C2(Cn3cncn3)CC(Br)CO2)c(Cl)c1 (centres undefined) ?
-- reply inactive

-- ask Which outcome was entered for the molecule C(=NC1CCCCC1)=NC1CCCCC1 in this test?
-- reply inactive

-- ask GET /call?item= CC/C(=N\OC/C=C/Cl)C1=C(O)CC(C2CCOCC2)CC1=O (centres undefined) returns the recorded outcome of this test.
-- reply inactive

-- ask Hi, sorry to bother you, what did the test record for Cn1sc(Cl)cc1=O ?
-- reply inactive

-- ask Short answer needed: outcome of this test for CCBr ?
-- reply inactive

-- ask Name the outcome recorded for C[C@@H]1CC[C@H]2[C@@H](C)C(=O)O[C@@H]3O[C@@]4(C)CC[C@@H]1[C@]32OO4 in the assay.
-- reply inactive

-- ask Hello, I am checking results. What call was entered for [CH3][Sn]([CH3])([Cl])[Cl] ?
-- reply inactive

-- ask What did this assay record as the result for CC(O)(CS(=O)(=O)c1ccc(F)cc1)C(=O)Nc1ccc(C#N)c(C(F)(F)F)c1 (centres undefined) ?
-- reply inactive

-- ask What did this assay record as the result for CC(C)(OO)c1ccccc1 ?
-- reply inactive

-- ask What is the recorded call for this molecule in the test? CCOP(=O)(OCC)Oc1ccc([N+](=O)[O-])cc1
-- reply inactive

-- ask Test call for this molecule, please: CC1Sc2c(C(=O)O)c(=O)c3cc(F)c(N4CCNCC4)cc3n21 (centres undefined)
-- reply inactive

-- ask Write down the call the test reported for this molecule. Item: COc1ccc(-c2ccccc2)cc1NNC(=O)OC(C)C
-- reply inactive

-- ask Which outcome did this test record for the molecule CCCCOC(=O)c1ccccc1C(=O)OCc1ccccc1 ?
-- reply inactive

-- ask Give the logged outcome of this assay for the following molecule: O=[Se]=O
-- reply inactive

-- ask Record request — test call for Cc1ccc(N)cc1C
-- reply active

-- ask Check the results log: what was the call for ClP(Cl)(Cl)(Cl)Cl ?
-- reply inactive

-- ask Lab log entry: CC(C)(Cl)[N+](=O)[O-] — outcome as called in the assay?
-- reply inactive

-- ask Please let me know the test result on file for COP(=O)(OC)O/C(=C/Cl)c1cc(Cl)c(Cl)cc1Cl .
-- reply inactive

-- ask What did the test return for CCCCC(O)(Cn1cncn1)c1ccc(Cl)cc1Cl (centres undefined) ?
-- reply inactive

-- ask Hi, do you know how O=C(O)C1(c2ccc3c(c2)OC[C@H](Cc2ccc(-c4ccccc4)cc2)[C@H]3O)CCCC1 came out in this test?
-- reply inactive

-- ask // outcome(item) with item = CC(Cl)Cl
-- reply inactive

-- ask Per the records of this test, what outcome belongs to CCCN(CCCl)c1c([N+](=O)[O-])cc(C(F)(F)F)cc1[N+](=O)[O-] ?
-- reply inactive

-- ask Fill in: this test's call for CS/C(C)=N/OC(=O)N(C)SN(C)C(=O)O/N=C(\C)SC is ___
-- reply inactive

-- ask Please state the recorded outcome for this molecule: COCC(C)N(C(=O)CCl)c1c(C)csc1C (centres undefined)
-- reply inactive

-- ask Tell me the recorded outcome of this test for CC(C)=CCOc1c2occc2cc2ccc(=O)oc12 .
-- reply inactive

-- ask # lookup: test call for CO/N=C(/C(=O)OC)c1ccccc1COc1ccccc1C
-- reply inactive

-- ask Please indicate how the test categorized ClCc1cccc(Cl)c1 .
-- reply inactive

-- ask # lookup: test call for CN1C(=O)C(O)N=C(c2ccccc2)c2cc(Cl)ccc21 (centres undefined)
-- reply inactive

-- ask Look up the recorded call for CCCCc1c(C)nc(NCC)nc1OS(=O)(=O)N(C)C in this test.
-- reply inactive

-- ask Hi team, can someone confirm the assay call for CCOP(=S)(Oc1ccc([N+](=O)[O-])cc1)c1ccccc1 (centres undefined) ?
-- reply inactive

-- ask # outcome recorded in this test, key = O=C(CCl)c1ccc(Cl)cc1Cl
-- reply inactive

-- ask Please indicate how the test categorized C=CC(C)=O .
-- reply inactive

-- ask Which outcome was entered for the molecule NC(=O)CI in this test?
-- reply inactive

-- ask What did this assay record as the result for CCC(C)(NC(=O)c1cc(Cl)c(C)c(Cl)c1)C(=O)CCl (centres undefined) ?
-- reply inactive

-- ask Test call, this molecule: Cc1ccccc1CCl
-- reply inactive

-- ask In this assay, the call recorded for O=C1CN=C(c2ccccc2)c2cc(Cl)ccc2N1CC1CC1 was what?
-- reply inactive

-- ask Outcome? O=C(O)C(F)(F)C(F)(F)C(F)(F)C(F)(F)C(F)(F)C(F)(F)C(F)(F)C(F)(F)C(F)(F)F
-- reply inactive

-- ask So what was the verdict on O=C(NC(=O)c1c(F)cccc1F)Nc1ccc(OC(F)(F)C(F)OC(F)(F)F)c(Cl)c1 (centres undefined) in this test?
-- reply inactive

-- ask Write down the call the test reported for this molecule. Item: O=C1c2ccccc2C(=O)C1C(=O)C(c1ccccc1)c1ccccc1
-- reply inactive

-- ask Please let me know the test result on file for S=C=NCc1ccccc1 .
-- reply inactive

-- ask Hi team, can someone confirm the assay call for COP(=S)(OC)Oc1ccc([N+](=O)[O-])cc1Cl ?
-- reply inactive
